- Tested on: LG0567-F671-PDC complex spheroids viability;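 note: spheroids exposed to compound for seven days before readout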
- PROTOCOL SUMMARY: Anticancer human tumor LG0567-F671-PDC patient-derived lung adenocarcinoma cell line growth inhibition [RAS]
- RUN PARAMETERS: second compound 0.03 µM; first compound 1 µM; active compounds read low
READOUT NAME: viability, T/C (%)
Lab book: enter the figure in %, no units written.

What viability, T/C value was documented for this compound, Nc1ccn(C2OC(CO)C(O)C2(F)F)c(=O)n1 (stereo not given) + CCn1c(-c2cc(N3CCN(C)CC3)cnc2C(C)OC)c2c3cc(ccc31)-c1csc(n1)CC(NC(=O)C1CC1C)C(=O)N1CCCC(N1)C(=O)OCC(C)(C)C2 ? 5.29

So what does the record say about viability, T/C for CCC(CC)c1cc(NC2CCC(N)C2)n2nccc2n1 (stereo not given) + CCn1c(-c2cc(N3CCN(C)CC3)cnc2C(C)OC)c2c3cc(ccc31)-c1csc(n1)CC(NC(=O)C1CC1C)C(=O)N1CCCC(N1)C(=O)OCC(C)(C)C2 ? 2.31

Entry C=CC(=O)N1CCN(c2nc(OCC3CCCN3C)nc3c(F)c(-c4nc(N)cc(C)c4C(F)(F)F)c(Cl)cc23)C(C)C1 (stereo not given) + CCn1c(-c2cc(N3CCN(C)CC3)cnc2C(C)OC)c2c3cc(ccc31)-c1csc(n1)CC(NC(=O)C1CC1C)C(=O)N1CCCC(N1)C(=O)OCC(C)(C)C2 : reported viability, T/C = ? 3.55

Item under review: Cc1nc(N2CCC3(CC2)COC(C)C3N)c(CO)nc1Sc1ccnc(N)c1Cl (stereo not given) + CCn1c(-c2cccnc2C(C)OC)c2c3cc(ccc31)N1CCOC(CC(NC(=O)C(C(C)C)N(C)C(=O)C3(F)CCN(C(=O)C#CC(C)(C)N(C)C)CC3)C(=O)N3CCCC(N3)C(=O)OCC(C)(C)C2)C1 . Reported viability, T/C? 3.36

If you can, please state the reported viability, T/C value of C=CC(=O)Nc1cc(Nc2nccc(-c3cn(C)c4ccccc34)n2)c(OC)cc1N(C)CCN(C)C + CCn1c(-c2cc(N3CCN(C)CC3)cnc2C(C)OC)c2c3cc(ccc31)-c1csc(n1)CC(NC(=O)C1CC1C)C(=O)N1CCCC(N1)C(=O)OCC(C)(C)C2 . 0.76

Reported viability, T/C for Cc1nc(N2CCC3(CC2)COC(C)C3N)c(CO)nc1Sc1ccnc(N)c1Cl (stereo not given) + CCn1c(-c2cc(N3CCN(C)CC3)cnc2C(C)OC)c2c3cc(ccc31)-c1csc(n1)CC(NC(=O)C1CC1C)C(=O)N1CCCC(N1)C(=O)OCC(C)(C)C2 : what is it? 1.41

For the compound shown here, O=C(c1ccc(F)c(F)c1Nc1ccc(I)cc1F)N1CC(O)([C@@H]2CCCCN2)C1 + CCn1c(-c2cc(N3CCN(C)CC3)cnc2C(C)OC)c2c3cc(ccc31)-c1csc(n1)CC(NC(=O)C1CC1C)C(=O)N1CCCC(N1)C(=O)OCC(C)(C)C2 , give the reported viability, T/C. 0.95

Param item = C=CC(=O)Nc1cc(Nc2nccc(-c3cn(C)c4ccccc34)n2)c(OC)cc1N(C)CCN(C)C + CCn1c(-c2cccnc2C(C)OC)c2c3cc(ccc31)N1CCOC(CC(NC(=O)C(C(C)C)N(C)C(=O)C3(F)CCN(C(=O)C#CC(C)(C)N(C)C)CC3)C(=O)N3CCCC(N3)C(=O)OCC(C)(C)C2)C1 ; retrieve measured viability, T/C. 3.05

viability, T/C lookup needed for CC(C)NCC(C(=O)N1CCN(c2ncnc3c2C(C)CC3O)CC1)c1ccc(Cl)cc1 (stereo not given) + CCn1c(-c2cccnc2C(C)OC)c2c3cc(ccc31)N1CCOC(CC(NC(=O)C(C(C)C)N(C)C(=O)C3(F)CCN(C(=O)C#CC(C)(C)N(C)C)CC3)C(=O)N3CCCC(N3)C(=O)OCC(C)(C)C2)C1 , thanks. 8.64

Query: viability, T/C; subject: Nc1ccn(C2OC(CO)C(O)C2(F)F)c(=O)n1 (stereo not given) + CCn1c(-c2cccnc2C(C)OC)c2c3cc(ccc31)N1CCOC(CC(NC(=O)C(C(C)C)N(C)C(=O)C3(F)CCN(C(=O)C#CC(C)(C)N(C)C)CC3)C(=O)N3CCCC(N3)C(=O)OCC(C)(C)C2)C1 13
